Entries and their measured GI50 follow.
test system: BT-549; experiment: NCI tumour cell line growth inhibition, 48 h
Active and inactive are the calls of the source. Rule as the data show it: active = GI50 up to about 1.1 µM and inactive = higher.

Some entries whose results are on file:
compound	GI50
CCCN(C(=O)c1c(Cl)nnc(Cl)c1C(=O)c1cc(Cl)nnc1Cl)c1cc(Cl)nnc1Cl	9.73 µM (inactive)
CC(=O)O[C@H]1CC[C@@]2(C)C(=CC[C@@H]3[C@@H]2CC[C@]2(C)NC(=O)/C(=C\c4ccccc4)C[C@@H]32)C1	18.6 µM (inactive)
C=C1CC(COc2ccc3ccc(=O)oc3c2)(c2ccccc2)OC1=O (centres undefined)	1.54 µM (inactive)

# next compound below
Provide measured GI50 value, entry: `COC(=O)[C@](C)(Cc1ccccc1)NC(=O)[C@@H](C)N1[C@@H](c2ccccc2)COC1(C)C`
48.2 µM (inactive)

###

tested on: A498; assay: NCI tumour cell line growth inhibition, 48 h
Counter-ions that a name gives are not always drawn. Calls of active or inactive are those of the source. Cut-off read from the data, not from the text of the source: active = GI50 up to about 1.1 µM and inactive = higher.
The categories you may choose from are active, inactive

molecule	target-of-assay	class-assignment
COc1ccc2c3c([nH]c2c1)[C@H](C=C(C)C)N1C(=O)[C@@H]2CCCN2C(=O)[C@@H]1C3	A498	inactive

State the result this test recorded for NCCSSCCN [CYSTAMINE HYDROCHLORIDE] .
inactive

Write down the call the test reported for this molecule. Item: `O=N/N=c1\o[n-][n+](CCc2ccccc2)c1Cc1/c(=N/N=O)o[n-][n+]1CCc1ccccc1`
inactive

Just curious, what result did Cc1ccc([N+](=O)[O-])cc1S(=O)(=O)Nc1ccc(C2=NOC(c3ccccc3O)C2)cc1 (stereo unspecified) get here?
inactive

Called result for COc1ccc(/C=C2\CCC(C)C3=C(c4ccc(OC)c(OC)c4)C(C#N)=C(N)OC32)cc1OC (stereo unspecified)
inactive

Which outcome was assigned to COc1ncnc2c(Cl)c(C(O)c3ccccc3)c(Cl)cc12 (stereo unspecified) in this test?
inactive

Outcome? `O=C1CCN2CCC(=O)c3c2c(cc2ccccc32)N1`
inactive

Please let me know the test result on file for `CCCCc1ccc(-n2c(C)c(COC(=O)NC)c(COC(=O)NC)c2C)cc1` .
active

Entry `O=S(=O)(c1cc(Cl)ccc1Cl)N1CCN(c2cccc(Cl)c2)CC1` : call = ?
inactive

Could you check what this test reported for `Cc1n[nH]c(=O)n1/N=C/c1ccc(Cl)cc1` ?
inactive

# outcome recorded in this test, key = `O=C(CN1CCOCC1)c1ccc2c(c1)oc(=O)n2CCN1CCCCC1`
inactive

Assay outcome for `COC(=O)[C@]12CSC[C@H]1C[C@H](c1cccc3ccccc13)N2` : what was it?
inactive

Returns: the outcome recorded for C[C@@H](CCO)OC1OC(COC(=O)C(C)(C)C)C(OC(=O)C(C)(C)C)C(OC(=O)C(C)(C)C)C1OC(=O)C(C)(C)C (stereo partly specified) in this assay.
inactive

Please state the recorded outcome for this molecule: `NC(=O)N/N=C1\C[C@H]2CCCC[C@H]2C1`
inactive

Test call, this molecule: COC1=CC(=O)c2c(O)c3c(c(O)c2C1=O)C=C(C)OC3O (stereo unspecified)
inactive

Could you check what this test reported for `C/C(=N/NC(=O)c1ccncc1)C(F)(F)F` ?
inactive

###

tested on: RXF 393; assay: NCI tumour cell line growth inhibition, 48 h
The source made the active and inactive calls. No stated cut-off is given here; in the data, active = GI50 up to about 1.1 µM and inactive = higher.
Entry note: the call must match one of active, inactive

compound	class-assignment
CC(=O)Nc1ccc2c3c(cc(O)c2c1)N(C(=O)CCCCC(=O)N1CC(CCl)c2c1cc(O)c1cc(NC(C)=O)ccc21)CC3CCl (stereo not given)	active

Any idea what this test logged for `O=C1CCN2CCC(=O)c3c2c(cc2ccccc32)N1` ?
inactive

Write down the call the test reported for this compound. Item: `CNC(=S)/C(C#N)=C(\N)N1CCN(C)CC1`
inactive

// return assay outcome for `COc1cc2c(cc1C)NC(=O)/C2=C/c1cccnc1`
inactive

So what was the verdict on `CC(=O)NC(NCCN)(c1ccccc1)c1ccccc1` in this test?
inactive

Recorded call for C/C=C1\CCC2c3[nH]c4ccccc4c3CCN2C1 (stereo not given) ?
inactive

Per the assay record, what outcome was assigned to NC(Cc1ccc(S(=O)(=O)O)cc1)C(=O)NC(Cc1ccc(S(=O)(=O)O)cc1)C(=O)NC(Cc1ccc(S(=O)(=O)O)cc1)C(=O)NC(Cc1ccc(S(=O)(=O)O)cc1)C(=O)O (stereo not given) ?
inactive

Can you look up the reported call for `COc1cccc(NC(=O)CSc2nnc(Cc3ccccc3)o2)c1` for me?
inactive

Call for entry `CCOC(=O)c1cn(CC)c2cc3c(cc2c1=O)CCS3(=O)=O` :
inactive

Per the assay record, what outcome was assigned to `Cc1cc(C)c(C[C@H]2COC(=O)[C@]2(O)Cc2c(C)cc(C)cc2C)c(C)c1` ?
inactive
